- experimental system: Transthyretin (Homo sapiens) (UniProt P02766)
- protocol: Inhibition of wild type TTR fibril formation at OD400
- Format: functional
assay metric: Formation (%)

I: ClCCc1ccccc1Nc1c(Cl)cccc1Cl
II: O=C(O)c1ccccc1Nc1cc(Cl)cc(Cl)c1
Select one. Lower Formation: I or II Please identify the chosen entry by its label. II

---

- experimental system: Transthyretin (Homo sapiens) (UniProt P02766)
- protocol: Inhibition of wild type TTR fibril formation at OD400
- Type: functional
assay metric: Formation (%)

Field: example entries. Status: answers known.
{"columns": ["chemical smiles", "Formation (%)"],
 "data": [
  ["O=C(O)Cc1ccccc1Nc1c(Cl)cccc1Cl", 35],
  ["CC(C)c1ccccc1Nc1c(Cl)cccc1Cl", 85],
  ["COC(=O)Cc1ccccc1Nc1c(Cl)cccc1Cl", 78]
]}

1: CCCc1ccccc1Nc1c(Cl)cccc1Cl
2: O=C(O)Cc1ccccc1Nc1c(Cl)cc(C(=O)O)cc1Cl
3: OCCc1ccccc1Nc1c(Cl)cccc1Cl
Task for the reader: rank each entry by its Formation, from the minimum upward. Please list each label once, in the requested order. 2, 3, 1

---

- experimental system: Transthyretin (Homo sapiens) (UniProt P02766)
- protocol: Inhibition of V30M TTR fibril formation at OD400
- Type: functional
assay metric: Formation (%)

{"columns": ["chemical smiles", "unit abbrev", "Formation"],
 "data": [
  ["O=C(O)Cc1ccccc1Nc1c(Cl)cccc1Cl", "%", 33],
  ["O=C(O)c1ccccc1Nc1cc(Cl)cc(Cl)c1", "%", 30],
  ["CCc1ccccc1Nc1c(Cl)cccc1Cl", "%", 70]
]}

I: O=C(O)Cc1ccccc1Nc1c(Cl)cc(C(=O)O)cc1Cl
II: CCCc1ccccc1Nc1c(Cl)cccc1Cl
Which shows the larger Formation value: I or II ? Please identify the chosen entry by its label. II
(II: 85%, I: 28%)

A: O=C(O)c1ccccc1Nc1c(Cl)cccc1Cl
B: OCCc1ccccc1Nc1c(Cl)cccc1Cl
Select one. Lower Formation: A or B Please identify the chosen entry by its label. A
(A: 27%, B: 62%)

a: O=C(O)Cc1ccccc1Nc1cc(Cl)cc(Cl)c1
b: CC(C)c1ccccc1Nc1c(Cl)cccc1Cl
Select one. Lower Formation: a or b Please identify the chosen entry by its label. a

a: O=C(O)c1cc(Cl)c(Nc2ccc([N+](=O)[O-])cc2)c(Cl)c1
b: ClCCc1ccccc1Nc1c(Cl)cccc1Cl
Which shows the larger Formation value: a or b ? Please identify the chosen entry by its label. b
(b: 70%, a: 33%)

---

- experimental system: Transthyretin (Homo sapiens) (UniProt P02766)
- protocol: Inhibition of L55P TTR fibril formation was measured at OD400.
- Assay type: functional
assay metric: Formation (%)

I: CCc1ccccc1Nc1c(Cl)cccc1Cl
II: O=C(O)Cc1ccccc1Nc1cc(Cl)cc(Cl)c1
Select one. Lower Formation: I or II Please identify the chosen entry by its label. II
(II: 53%, I: 85%)

A: ClCCc1ccccc1Nc1c(Cl)cccc1Cl
B: O=C(O)Cc1ccccc1Nc1c(Cl)cc(C(=O)O)cc1Cl
Select one. Lower Formation: A or B Please identify the chosen entry by its label. B

P: OCCc1ccccc1Nc1c(Cl)cccc1Cl
Q: O=C(O)c1ccccc1Nc1cc(Cl)cc(Cl)c1
Which shows the larger Formation value: P or Q ? Please identify the chosen entry by its label. P

---

- experimental system: UniProt:P02766
- protocol: Inhibition of wild type TTR fibril formation at OD400
- Assay type: functional
assay metric: Formation (%)

1: O=C(O)c1cc(Cl)c(Nc2ccc([N+](=O)[O-])cc2)c(Cl)c1
2: NC(=O)Cc1ccccc1Nc1c(Cl)cccc1Cl
Which shows the larger Formation value: 1 or 2 ? Please identify the chosen entry by its label. 2
(2: 65%, 1: 40%)

A: CCc1ccccc1Nc1c(Cl)cccc1Cl
B: O=C(O)Cc1ccccc1Nc1cc(Cl)cc(Cl)c1
Select one. Lower Formation: A or B Please identify the chosen entry by its label. B

---

- experimental system: Transthyretin (Homo sapiens) (UniProt P02766)
- protocol: Inhibition of L55P TTR fibril formation was measured at OD400.
- Format: functional
assay metric: Formation (%)

{"columns": ["chemical smiles", "experimental system", "Formation [%]"],
 "data": [
  ["CC(C)c1ccccc1Nc1c(Cl)cccc1Cl", "Transthyretin (Homo sapiens) (UniProt P02766)", 90],
  ["O=C(O)Cc1ccccc1Nc1c(Cl)cccc1Cl", "Transthyretin (Homo sapiens) (UniProt P02766)", 72],
  ["COC(=O)Cc1ccccc1Nc1c(Cl)cccc1Cl", "Transthyretin (Homo sapiens) (UniProt P02766)", 90],
  ["O=C(O)c1cc(Cl)c(Nc2ccc([N+](=O)[O-])cc2)c(Cl)c1", "Transthyretin (Homo sapiens) (UniProt P02766)", 75],
  ["CCCc1ccccc1Nc1c(Cl)cccc1Cl", "Transthyretin (Homo sapiens) (UniProt P02766)", 90]
]}
